# System: Caco-2
# experiment_summary: Proliferation assay, crystal violet
# Assay type: cell-based
# protocol_conditions: Homo sapiens, 96 h; Caco-2, 4 days; read-out: Inhibition of Caco-2 cell proliferation IC50
Kindly state pIC50 for each of the entries shown.
In simple prose, pIC50 is minus the logarithm base ten of a concentration in moles per litre.

query: Complete the entry with pIC50 for CS(=N)(Cc1cc2nc(c1)OCCCOc1cc(F)ccc1-c1cc(ncc1F)N2)=NCCCO (racemic)
result: 7.54

query: State its pIC50 for this molecule: CS(=N)(=N)Cc1cc2cc(c1)OCCCCOc1cc(F)ccc1-c1nc(ncc1F)N2
result: 7.45

query: Consider the molecule CS(=N)(=N)Cc1cc2nc(c1C#N)OCCCOc1cc(F)ccc1-c1cc(ncc1F)N2 and give its recorded pIC50.
result: 7.37

query: Give recorded pIC50. CS(=N)(Cc1cc2cc(c1)OCCCCOc1cc(F)ccc1-c1nc(ncc1F)N2)=NC1CC1 (racemic)
result: 7.32

query: Give recorded pIC50. CS(=N)(=N)Cc1cc2cc(c1)OCCCCOc1c(ccc(F)c1F)-c1nc(ncc1F)N2
result: 6.49

query: // fetch pIC50 given entry CS(=N)(=N)Cc1cc2nc(c1)OCCCOc1cc(F)ccc1-c1cc(ncc1F)N2
result: 7.79

query: Read off the recorded pIC50 for CS(=N)(=N)Cc1cc2cc(c1)OCCCCOc1c(F)cccc1-c1nc(ncc1F)N2
result: 6.40

---

So I've got a bunch of compounds here, and I need their Papp A→B at 2 h, 2 μM values.
# experiment_summary: Caco-2 permeation assay
# Assay type: in vitro ADME
# protocol_conditions: human, Caco-2, pH 7.2; test compound 2 μM; read-out: Papp A-B (Mari)
Mention the unit after the number when you answer.

query: Read off the recorded Papp A→B at 2 h, 2 μM for CS(=N)(=N)Cc1cc2cc(c1)OCCCCOc1cc(F)ccc1-c1nc(ncc1F)N2
result: 4.82 ×10⁻⁶ cm/s

query: Given CS(=N)(=N)Cc1cc2cc(c1)OCCCCOc1c(ccc(F)c1F)-c1nc(ncc1F)N2 , respond with its Papp A→B at 2 h, 2 μM.
result: 4.64 ×10⁻⁶ cm/s

query: Consider the compound CS(=N)(=N)Cc1cc2nc(c1)OCCCOc1cc(F)ccc1-c1cc(ncc1F)N2 . State its measured Papp A→B at 2 h, 2 μM.
result: 6.24 ×10⁻⁶ cm/s

query: Return the recorded Papp A→B at 2 h, 2 μM value; entry: CS(=N)(Cc1cc2nc(c1)OCCCOc1cc(F)ccc1-c1cc(ncc1F)N2)=NCCCO (racemic)
result: 0.99 ×10⁻⁶ cm/s

---

# Test system: B16F10
# experiment_summary: Proliferation assay, crystal violet
# Format: cell-based
# protocol_conditions: Mus musculus, B16-F10, 96 h; B16F10, 4 days; read-out: Inhibition of B16F10 cell proliferation IC50
Define the label as class 1 when IC50 is strictly less than 0.09 µM and as class 0 in all remaining cases.

query: IC50 under 0.09 µM? Item: CS(=N)(=N)Cc1cc2nc(c1)OCCCOc1cc(F)ccc1-c1cc(ncc1F)N2
result: class 1

query: A record lists CS(=N)(=N)Cc1cc2cc(c1)OCCCCOc1cc(F)ccc1-c1nc(ncc1F)N2 . Is its IC50 below 0.09 µM?
result: class 1

query: Take the molecule CS(=N)(=N)Cc1cc2cc(c1)OCCCCOc1c(F)cccc1-c1nc(ncc1F)N2 and say whether its IC50 is less than 0.09 µM.
result: class 0

query: For CS(=N)(Cc1cc2nc(c1)OCCCOc1cc(F)ccc1-c1cc(ncc1F)N2)=NCCCO (racemic) , is the recorded IC50 below the cut-off of 0.09 µM?
result: class 1

query: Take the molecule CS(=N)(=N)Cc1cc2nc(c1C#N)OCCCOc1cc(F)ccc1-c1cc(ncc1F)N2 and say whether its IC50 is less than 0.09 µM.
result: class 1

query: Consider CS(=N)(=N)Cc1cc2cc(c1)OCCCCOc1c(ccc(F)c1F)-c1nc(ncc1F)N2 . Does its IC50 lie strictly below 0.09 µM?
result: class 0

---

Please respond with reported pIC50 for every item in the list.
# study_target: CDK2/CycE (Homo sapiens)
# Construct: GST; purchased ProQinase GmbH (Freiburg, Germany); host or cells: insect cells (Sf9)
# experiment_summary: CDK2/CycE kinase assay (Method 2a, TR-FRET, 10 μM ATP)
# Type: biochemical
In textbook form, pIC50 equals minus log to base ten of the concentration in mol/L.

query: Respond only with pIC50 recorded for CS(=N)(Cc1cc2nc(c1)OCCCOc1cc(F)ccc1-c1cc(ncc1F)N2)=NC#N (racemic) [Example 3]
result: 8.22

query: Answer with the recorded pIC50 for the molecule listed here: CS(=N)(Cc1cc2nc(c1)OCCCOc1cc(F)ccc1-c1cc(ncc1F)N2)=NCCCO (racemic) [Example 2]
result: 7.65

query: Supply pIC50 value. Item: CS(=N)(Cc1cc2cc(c1)OCCCCOc1cc(F)ccc1-c1nc(ncc1F)N2)=NC1CC1 (racemic) [Example 9]
result: 6.84

query: Please supply the value of reported pIC50 for the item CN=S(C)(=N)Cc1cc2nc(c1)OCCCOc1cc(F)ccc1-c1cc(ncc1F)N2 (racemic) [Example 4]
result: 7.43

query: Assign pIC50 to the following record: CS(=N)(=N)Cc1cc2cc(c1)OCCCCOc1cc(F)ccc1-c1nc(ncc1F)N2 [Example 5]
result: 7.03

query: Determine its reported pIC50: CS(=N)(=N)Cc1cc2nc(c1)OCCCOc1cc(F)ccc1-c1cc(ncc1F)N2 [Example 1]
result: 7.79

query: Tell me its pIC50 given CS(=N)(=N)Cc1cc2nc(c1C#N)OCCCOc1cc(F)ccc1-c1cc(ncc1F)N2 [Example 8] as the entry.
result: 7.15

query: Input CS(=N)(=N)Cc1cc2cc(c1)OCCCCOc1c(F)cccc1-c1nc(ncc1F)N2 [Example 7] , output reported pIC50.
result: 5.93

query: Quick one: give measured pIC50 for CS(=N)(=N)Cc1cc2cc(c1)OCCCCOc1c(ccc(F)c1F)-c1nc(ncc1F)N2 [Example 6]
result: 5.84

---

# study_target: T1, human PTEFb (CDK9/Cyclin T1) (Homo sapiens, UniProt P50750)
# T1 construct: purchased ProQinase, Freiburg, Germany
# T1 sequence (P50750 whole entry): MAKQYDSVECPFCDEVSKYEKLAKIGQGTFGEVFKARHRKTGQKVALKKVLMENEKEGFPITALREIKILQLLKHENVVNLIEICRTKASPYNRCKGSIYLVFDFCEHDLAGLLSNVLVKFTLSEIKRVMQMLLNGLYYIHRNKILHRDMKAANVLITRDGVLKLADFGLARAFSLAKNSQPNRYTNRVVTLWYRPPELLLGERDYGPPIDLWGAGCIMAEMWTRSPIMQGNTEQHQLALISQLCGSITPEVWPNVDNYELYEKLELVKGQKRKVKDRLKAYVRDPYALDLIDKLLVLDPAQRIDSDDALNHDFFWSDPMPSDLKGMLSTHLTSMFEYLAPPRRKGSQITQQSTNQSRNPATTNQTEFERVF
# T1 sequence (O60563 whole entry partner): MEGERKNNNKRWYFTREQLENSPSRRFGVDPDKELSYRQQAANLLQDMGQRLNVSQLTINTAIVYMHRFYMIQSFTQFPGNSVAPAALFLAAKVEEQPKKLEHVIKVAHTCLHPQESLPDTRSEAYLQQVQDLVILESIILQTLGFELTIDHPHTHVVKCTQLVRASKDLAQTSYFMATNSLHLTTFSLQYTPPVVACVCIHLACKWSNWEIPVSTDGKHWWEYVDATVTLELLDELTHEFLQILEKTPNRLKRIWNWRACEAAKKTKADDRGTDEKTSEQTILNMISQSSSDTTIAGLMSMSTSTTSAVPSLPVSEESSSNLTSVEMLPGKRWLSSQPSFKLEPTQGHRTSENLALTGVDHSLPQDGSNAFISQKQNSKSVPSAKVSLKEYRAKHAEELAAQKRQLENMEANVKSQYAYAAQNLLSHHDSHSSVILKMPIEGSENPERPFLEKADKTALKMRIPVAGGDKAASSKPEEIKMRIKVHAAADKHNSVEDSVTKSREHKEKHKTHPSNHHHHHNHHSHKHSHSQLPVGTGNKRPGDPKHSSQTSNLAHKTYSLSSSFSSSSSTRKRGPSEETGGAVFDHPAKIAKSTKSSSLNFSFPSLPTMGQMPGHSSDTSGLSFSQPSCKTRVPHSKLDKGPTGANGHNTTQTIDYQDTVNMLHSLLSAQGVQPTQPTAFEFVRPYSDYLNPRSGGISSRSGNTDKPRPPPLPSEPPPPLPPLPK
# experiment_summary: Surface Plasmon Resonance PTEFb
# Type: binding
# protocol_conditions: 25° C., Parameters B; read-out: Dissociation rate constant koff
reported_endpoint: koff (s⁻¹)
Report the figure in s⁻¹ without appending any unit label.

query: Specify koff for CS(=N)(=N)Cc1cc2cc(c1)OCCCCOc1c(ccc(F)c1F)-c1nc(ncc1F)N2 [Example 6] and stop.
result: 0.00188

query: Indicate its recorded koff; the compound in question is CN=S(C)(=N)Cc1cc2nc(c1)OCCCOc1cc(F)ccc1-c1cc(ncc1F)N2 (racemic) [Example 4]
result: 4.96e-05

---

# System: DU145
# experiment_summary: Proliferation assay, crystal violet
# Type: cell-based
# protocol_conditions: Homo sapiens, DU-145, 96 h; DU145, 4 days; read-out: Inhibition of DU145 cell proliferation IC50
reported_endpoint: pIC50
For clarity, pIC50 is expressed as the negative log10 of concentration in mol/L.

query: # return recorded pIC50 for entry CS(=N)(=N)Cc1cc2nc(c1C#N)OCCCOc1cc(F)ccc1-c1cc(ncc1F)N2 [Example 8]
result: 7.95

query: Please list pIC50 recorded for the molecule CS(=N)(Cc1cc2nc(c1)OCCCOc1cc(F)ccc1-c1cc(ncc1F)N2)=NCCCO (racemic) [Example 2]
result: 7.53

query: In one line, give reported pIC50 of the entry CS(=N)(=N)Cc1cc2nc(c1)OCCCOc1cc(F)ccc1-c1cc(ncc1F)N2 [Example 1] .
result: 8.04

query: Supply reported pIC50 belonging to this molecule: CS(=N)(=N)Cc1cc2cc(c1)OCCCCOc1c(F)cccc1-c1nc(ncc1F)N2 [Example 7]
result: 6.40

query: Tell me pIC50 reported for CS(=N)(=N)Cc1cc2cc(c1)OCCCCOc1cc(F)ccc1-c1nc(ncc1F)N2 [Example 5]
result: 7.44

query: Given CS(=N)(Cc1cc2cc(c1)OCCCCOc1cc(F)ccc1-c1nc(ncc1F)N2)=NC1CC1 (racemic) [Example 9] , respond with its pIC50.
result: 6.93

query: Please report pIC50 for the following molecule: CS(=N)(=N)Cc1cc2cc(c1)OCCCCOc1c(ccc(F)c1F)-c1nc(ncc1F)N2 [Example 6]
result: 6.44

---

# experiment_summary: High throughput determination of aqueous drug solubility from DMSO solution (Method 4a)
# Format: physicochemical
# protocol_conditions: phosphate buffer, kinetic from dmso stock, pH 6.5, Method 4a
reported_endpoint: solubility thermodynamic at 24 h

query: Could you please provide reported solubility thermodynamic at 24 h for CS(=N)(=N)Cc1cc2cc(c1)OCCCCOc1c(ccc(F)c1F)-c1nc(ncc1F)N2 ? Thanks!
result: 14 µg/mL

query: Recall and state the measured solubility thermodynamic at 24 h for CS(=N)(Cc1cc2cc(c1)OCCCCOc1cc(F)ccc1-c1nc(ncc1F)N2)=NC1CC1 (racemic) .
result: 70 µg/mL

query: Output solubility thermodynamic at 24 h of CS(=N)(=N)Cc1cc2cc(c1)OCCCCOc1cc(F)ccc1-c1nc(ncc1F)N2
result: 78 µg/mL

Hey, just so you know, these numbers are from patent US10717749B2.
